Settings: 328.15 K; 101.33 kPa; Liquid; conductivity meter (DDJS-308A)
Consider the following molecules and their measured electrical conductivity readings.
Respond numerically; units are S/m and should not be typed.

Solved entries:
C[N+](C)(C)CCO.N[C@@H](CO)C(=O)[O-] [2-hydroxy-N,N,N-trimethylethanaminium L-serinate]	0.0122
C[N+](C)(C)CCO.O=C([O-])[C@@H]1CCCN1 [2-hydroxy-N,N,N-trimethylethanaminium L-prolinate]	0.00291
C[N+](C)(C)CCO.NCCC(=O)[O-] [2-hydroxy-N,N,N-trimethylethanaminium β-alaninate]	0.0178
C[C@H](N)C(=O)[O-].C[N+](C)(C)CCO [2-hydroxy-N,N,N-trimethylethanaminium L-alaninate]	0.0309

Next, consider the following molecule.
## Task Could you share which electrical conductivity value was measured for C[N+](C)(C)CCO.NCC(=O)[O-] [2-hydroxy-N,N,N-trimethylethanaminium glycinate] ?
## Result 0.0497

---

Assay: refractive index (Na D-line) (dimensionless)
Conditions: 293.15 K; 101.33 kPa; Liquid; Standard Abbe refractometry
measured_parameter: refractive index
Give the figure by itself; no unit, no explanation.

Before answering, review these 3 worked examples.
C[N+](C)(C)CCO.NCCC(=O)[O-] [2-hydroxy-N,N,N-trimethylethanaminium β-alaninate]	1.5322
C[C@H](N)C(=O)[O-].C[N+](C)(C)CCO [2-hydroxy-N,N,N-trimethylethanaminium L-alaninate]	1.5146
C[N+](C)(C)CCO.O=C([O-])[C@@H]1CCCN1 [2-hydroxy-N,N,N-trimethylethanaminium L-prolinate]	1.5419

## Task Quick check: refractive index of C[N+](C)(C)CCO.N[C@@H](CO)C(=O)[O-] [2-hydroxy-N,N,N-trimethylethanaminium L-serinate] ?
## Result 1.5447

## Task Any idea what its refractive index is? The compound is C[N+](C)(C)CCO.NCC(=O)[O-] [2-hydroxy-N,N,N-trimethylethanaminium glycinate]
## Result 1.5238

---

Settings: 353.15 K; 101.33 kPa; Liquid; conductivity meter (DDJS-308A)
Criterion: electrical conductivity strictly less than 0.1 S/m. Met: Criterion met. Not met: Criterion not met.

A selection of reference data follows.
C[N+](C)(C)CCO.NCC(=O)[O-] [2-hydroxy-N,N,N-trimethylethanaminium glycinate]	Criterion not met
C[N+](C)(C)CCO.NCCC(=O)[O-] [2-hydroxy-N,N,N-trimethylethanaminium β-alaninate]	Criterion met
C[N+](C)(C)CCO.O=C([O-])[C@@H]1CCCN1 [2-hydroxy-N,N,N-trimethylethanaminium L-prolinate]	Criterion met

## Task For C[N+](C)(C)CCO.N[C@@H](CO)C(=O)[O-] [2-hydroxy-N,N,N-trimethylethanaminium L-serinate] , is the recorded electrical conductivity below the cut-off of 0.1 S/m?
## Result Criterion met

---

Settings: 313.15 K; 101.33 kPa; Liquid; conductivity meter (DDJS-308A)
measured_parameter: electrical conductivity (S/m)
Kindly answer with a numeric value in S/m, unit omitted.

## Task Give its electrical conductivity value. Item: C[N+](C)(C)CCO.NCCC(=O)[O-] [2-hydroxy-N,N,N-trimethylethanaminium β-alaninate]
## Result 0.00494

## Task Endpoint output: electrical conductivity of C[N+](C)(C)CCO.N[C@@H](CO)C(=O)[O-] [2-hydroxy-N,N,N-trimethylethanaminium L-serinate] . Value?
## Result 0.00359

## Task Look at this compound and give its reported electrical conductivity. C[C@H](N)C(=O)[O-].C[N+](C)(C)CCO [2-hydroxy-N,N,N-trimethylethanaminium L-alaninate]
## Result 0.0126

## Task Field request: electrical conductivity | item: C[N+](C)(C)CCO.NCC(=O)[O-] [2-hydroxy-N,N,N-trimethylethanaminium glycinate]
## Result 0.022

## Task Recorded electrical conductivity for C[N+](C)(C)CCO.O=C([O-])[C@@H]1CCCN1 [2-hydroxy-N,N,N-trimethylethanaminium L-prolinate] , please?
## Result 0.0007

---

Overview of reported refractive index across a group of compounds:
Test: refractive index (Na D-line) (dimensionless)
Settings: 318.15 K; 101.33 kPa; Liquid; Standard Abbe refractometry
± gives the expanded uncertainty stated by the source.

Worked cases, answers included:
C[N+](C)(C)CCO.N[C@@H](CO)C(=O)[O-] [2-hydroxy-N,N,N-trimethylethanaminium L-serinate]	1.5388 ± 0.0011
C[C@H](N)C(=O)[O-].C[N+](C)(C)CCO [2-hydroxy-N,N,N-trimethylethanaminium L-alaninate]	1.5094 ± 0.0011

## Task So what's the measured refractive index for this one? C[N+](C)(C)CCO.NCC(=O)[O-] [2-hydroxy-N,N,N-trimethylethanaminium glycinate]
## Result 1.5182 ± 0.0011

## Task Entry under review: C[N+](C)(C)CCO.NCCC(=O)[O-] [2-hydroxy-N,N,N-trimethylethanaminium β-alaninate] . Reported refractive index?
## Result 1.5277 ± 0.0011

## Task Reported refractive index for C[N+](C)(C)CCO.O=C([O-])[C@@H]1CCCN1 [2-hydroxy-N,N,N-trimethylethanaminium L-prolinate] : what is it?
## Result 1.5367 ± 0.0011

---

The reader will find reported electrical conductivity values listed item by item below.
Settings: 308.15 K; 101.33 kPa; Liquid; conductivity meter (DDJS-308A)
A complete answer gives the number and then names the unit.

C[N+](C)(C)CCO.O=C([O-])[C@@H]1CCCN1 [2-hydroxy-N,N,N-trimethylethanaminium L-prolinate]	0.00035 S/m
C[N+](C)(C)CCO.NCC(=O)[O-] [2-hydroxy-N,N,N-trimethylethanaminium glycinate]	0.0147 S/m
C[N+](C)(C)CCO.N[C@@H](CO)C(=O)[O-] [2-hydroxy-N,N,N-trimethylethanaminium L-serinate]	0.00229 S/m
C[N+](C)(C)CCO.NCCC(=O)[O-] [2-hydroxy-N,N,N-trimethylethanaminium β-alaninate]	0.00268 S/m

## Task Looking for the measured electrical conductivity of C[C@H](N)C(=O)[O-].C[N+](C)(C)CCO [2-hydroxy-N,N,N-trimethylethanaminium L-alaninate] , can you help?
## Result 0.00907 S/m

---

Details: 338.15 K; 101.33 kPa; Liquid; Cone and plate viscometry
measured_parameter: viscosity (mPa·s)
Kindly answer with a numeric value in mPa·s, unit omitted.

C[N+](C)(C)CCO.O=C([O-])[C@@H]1CCCN1 [2-hydroxy-N,N,N-trimethylethanaminium L-prolinate]	114
C[N+](C)(C)CCO.N[C@@H](CO)C(=O)[O-] [2-hydroxy-N,N,N-trimethylethanaminium L-serinate]	237.7
C[N+](C)(C)CCO.NCCC(=O)[O-] [2-hydroxy-N,N,N-trimethylethanaminium β-alaninate]	155.9
C[C@H](N)C(=O)[O-].C[N+](C)(C)CCO [2-hydroxy-N,N,N-trimethylethanaminium L-alaninate]	10

# ---- query compound ----
## Task Please report the recorded viscosity for C[N+](C)(C)CCO.NCC(=O)[O-] [2-hydroxy-N,N,N-trimethylethanaminium glycinate] .
## Result 7.2

---

Conditions: 348.15 K; 101.33 kPa; Liquid; Vibrating tube method
# maps each entry to its mass density
// units = kg/m3; emit number, no label

C[N+](C)(C)CCO.N[C@@H](CO)C(=O)[O-] [2-hydroxy-N,N,N-trimethylethanaminium L-serinate]	1162.54
C[C@H](N)C(=O)[O-].C[N+](C)(C)CCO [2-hydroxy-N,N,N-trimethylethanaminium L-alaninate]	1084.27
C[N+](C)(C)CCO.O=C([O-])[C@@H]1CCCN1 [2-hydroxy-N,N,N-trimethylethanaminium L-prolinate]	1092.12
C[N+](C)(C)CCO.NCC(=O)[O-] [2-hydroxy-N,N,N-trimethylethanaminium glycinate]	1117.53

We now examine a further compound.
## Task Suppose we examine the compound C[N+](C)(C)CCO.NCCC(=O)[O-] [2-hydroxy-N,N,N-trimethylethanaminium β-alaninate] ; what mass density value has been reported?
## Result 1092.32

---

Details: 303.15 K; 101.33 kPa; Liquid; Vibrating tube method
measured_parameter: mass density (kg/m3)
Number in kg/m3, nothing else.

C[N+](C)(C)CCO.NCCC(=O)[O-] [2-hydroxy-N,N,N-trimethylethanaminium β-alaninate]	1117.51
C[N+](C)(C)CCO.N[C@@H](CO)C(=O)[O-] [2-hydroxy-N,N,N-trimethylethanaminium L-serinate]	1188.65
C[C@H](N)C(=O)[O-].C[N+](C)(C)CCO [2-hydroxy-N,N,N-trimethylethanaminium L-alaninate]	1110.07
C[N+](C)(C)CCO.O=C([O-])[C@@H]1CCCN1 [2-hydroxy-N,N,N-trimethylethanaminium L-prolinate]	1118.21

Now let's try a different one.
## Task What measured mass density goes with C[N+](C)(C)CCO.NCC(=O)[O-] [2-hydroxy-N,N,N-trimethylethanaminium glycinate] ?
## Result 1142.31

---

Conditions: 318.15 K; 101.33 kPa; Liquid; Cone and plate viscometry
Recorded log10 of viscosity by entry
Log scale reminder: viscosity in mPa·s, then log10 taken.

Answered examples (4):
C[N+](C)(C)CCO.O=C([O-])[C@@H]1CCCN1 [2-hydroxy-N,N,N-trimethylethanaminium L-prolinate]	2.92
C[C@H](N)C(=O)[O-].C[N+](C)(C)CCO [2-hydroxy-N,N,N-trimethylethanaminium L-alaninate]	1.71
C[N+](C)(C)CCO.NCC(=O)[O-] [2-hydroxy-N,N,N-trimethylethanaminium glycinate]	1.47
C[N+](C)(C)CCO.NCCC(=O)[O-] [2-hydroxy-N,N,N-trimethylethanaminium β-alaninate]	2.86

Shifting focus to the molecule that follows.
## Task What does the data say about its log10 of viscosity? Entry: C[N+](C)(C)CCO.N[C@@H](CO)C(=O)[O-] [2-hydroxy-N,N,N-trimethylethanaminium L-serinate]
## Result 3.12
